# MEASUREMENT TARGET: sEH (Homo sapiens, UniProt P34913)
# Sequence (P34913 1-555): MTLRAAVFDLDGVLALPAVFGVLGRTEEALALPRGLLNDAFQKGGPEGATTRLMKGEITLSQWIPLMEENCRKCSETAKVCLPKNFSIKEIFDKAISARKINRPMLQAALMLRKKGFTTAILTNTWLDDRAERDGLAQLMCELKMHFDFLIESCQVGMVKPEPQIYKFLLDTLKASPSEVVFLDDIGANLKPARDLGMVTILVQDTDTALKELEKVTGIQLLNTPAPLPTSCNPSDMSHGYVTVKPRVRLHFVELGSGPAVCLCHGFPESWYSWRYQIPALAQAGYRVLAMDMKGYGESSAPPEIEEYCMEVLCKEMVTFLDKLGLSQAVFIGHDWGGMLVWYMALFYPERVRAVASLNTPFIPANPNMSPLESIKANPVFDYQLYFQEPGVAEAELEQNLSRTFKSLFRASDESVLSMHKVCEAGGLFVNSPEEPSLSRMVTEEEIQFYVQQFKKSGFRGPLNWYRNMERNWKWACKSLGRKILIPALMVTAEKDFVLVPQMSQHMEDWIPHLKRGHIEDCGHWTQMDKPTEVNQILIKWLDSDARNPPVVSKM
# EXPERIMENTAL PROTOCOL: biochemical
# ASSAY CONDITIONS: read-out: Effect on sEH activity, % inhibition
READOUT: inhibition at 0.1 µM (%)
Numbers only, in %.

O=C(Nc1ccc(Cl)cc1)Nc1ccc(CCc2nc3ccccc3[nH]2)cc1 : 78
Cc1cc(OCc2nc3ccccc3s2)ccc1NC(=O)NC1CCCCC1 [Compound I12-2, reference compound] : 75
COc1cccc(NC(=O)Nc2ccc(CCc3nc4ccccc4[nH]3)cc2)c1 : 30
COc1ccc(NC(=O)Nc2ccc(CCc3nc4ccccc4[nH]3)cc2)cc1 : 50

Could you report inhibition at 0.1 µM for every entry in the following list?
1. Cn1c(CCc2ccc(NC(=O)Nc3cccc(Cl)c3)cc2)nc2ccccc21
2. Cc1cccc(NC(=O)Nc2ccc(OCc3nc4ccccc4s3)cc2C)c1

## Output
[65, 55]

###

# Tested on: 5-LOX product formation in PMNL
# EXPERIMENTAL PROTOCOL: 5-LOX product formation in PMNL stimulated with A23187 (cell-based)
# Parameters: species or system human
# ASSAY CONDITIONS: Homo sapiens, PMNL, male PMNL cells, Exogenous AA 10 µM; read-out: IC50 values for 5-LOX product formation
READOUT: IC50 (µM)
Give bare numbers, in µM.

## Input Tell me reported IC50 for `Cc1cc(OCc2nc3ccccc3s2)ccc1NC(=O)Nc1ccc(Cl)c(Cl)c1` , tested with 5-LOX product formation in PMNL.
## Output 1.6

###

# MEASUREMENT TARGET: FLAP (Homo sapiens, UniProt P20292)
# Sequence (P20292 1-161): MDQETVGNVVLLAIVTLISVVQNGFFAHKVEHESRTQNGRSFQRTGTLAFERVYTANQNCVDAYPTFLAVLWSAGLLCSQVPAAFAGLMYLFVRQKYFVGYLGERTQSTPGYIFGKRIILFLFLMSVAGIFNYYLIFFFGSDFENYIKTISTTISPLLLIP
# ASSAY CONDITIONS: active = inhibition of product formation in cells without 5-LOX activity in the cell-free assay
READOUT: Effect on FLAP activity

O=C(Nc1ccc(CCc2nc3ccccc3[nH]2)cc1)Nc1cccc(Cl)c1 : inactive
O=C(Nc1ccccc1)Nc1ccc(CCc2nc3ccccc3[nH]2)cc1 : inactive
CCNC(=O)Nc1ccc(OCc2nc3ccccc3s2)cc1C [Compound I12-7, reference compound] : inactive
CC(C)c1ccc(OCc2nc3ccccc3[nH]2)cc1 [Compound I12-10, reference compound] : inactive
CSc1ccc(N/N=C/c2nc3ccccc3s2)cc1 [Compound I12-9, reference compound] : inactive

Could you report Effect on FLAP activity for every entry in the following list?
1. Cc1cccc(OCC(=O)Nc2ccc(OCc3nc4ccccc4s3)cc2C)c1 [Compound I12-11, reference compound]
2. Cc1cc(OCc2nc3ccccc3[nH]2)ccc1NC(=S)Nc1ccc(Cl)c(Cl)c1

## Output
1. active
2. active

## Input Tell me reported Effect on FLAP activity for `O=C(Nc1ccc(F)cc1)Nc1ccc(CCc2nc3ccccc3[nH]2)cc1` , tested with FLAP (Homo sapiens, UniProt P20292).
## Output inactive
